tested on: LOX IMVI melanoma; assay: NCI tumour cell line growth inhibition, 48 h; in the data active = GI50 below about 0.43 µM; inactive = the rest
Response enum: active, inactive

structure_notation | assayed_system | group
CS(=O)(=O)O[C@H]1C(=O)N(c2cc3c4ccccc4ccc3c3ccccc23)[C@@H]1c1ccccn1 | LOX IMVI melanoma | inactive
CCNC(=O)Oc1ccc(/C(=C(\C)c2ccc(Cl)cc2)c2ccc(OCCN(CC)CC)cc2)cc1 | LOX IMVI melanoma | inactive
COc1ccc(/C(=C/c2ccc3ccccc3c2)c2nn[nH]n2)cc1OC | LOX IMVI melanoma | inactive

Lab note: next compound to report on.
Q) Hey, what did the test say about `CCC1=C[C@@H]2CN(C1)Cc1c([nH]c3ccccc13)[C@@](C(=O)OC)(c1cc3c(cc1OC)N(C)[C@H]1[C@@](O)(C(=O)OC)[C@H](OC(C)=O)[C@]4(CC)C=CCN5CC[C@]31[C@@H]54)C2` ?
A) active
